Measured TGI accompanies every entry in the list below.
- System: NCI-H460 lung
- PROTOCOL_SUMMARY: NCI tumour cell line growth inhibition, 48 h

{"columns": ["COMPOUND", "SIGN", "TGI [µM]"],
 "data": [
  ["c1ccc2c(c1)[Se]c1ccccc1[Se]2", ">", 100],
  ["C/C=C1/CN2CC[C@@H]3c4ccccc4N4[C@H](C(=O)OC)[C@H]1C[C@H]2[C@]34/C=C/C1=COC[C@@H]2[C@H]1C[C@H]1c3c(c4ccccc4n3C)C[C@@H]2N1C", "=", 7.41],
  ["C=C(C)[C@@H]1CC[C@]2(c3ncc(C)o3)CC[C@]3(C)[C@H](CC[C@@H]4[C@@](C)(CCC#N)[C@H](C(=C)C)CC[C@]43C)[C@@H]12", "=", 19.4],
  ["Fc1ccc(C(OCCN2CC3CC2CN3CCCc2ccccc2)c2ccc(F)cc2)cc1 (centres undefined)", "=", 17.3]
]}
